# Test system: glycogen synthase kinase-3 (GSK3A per assay name; protocol says GSK3B)
# method: GSK3 binders on small-molecule microarrays, primary screen, biochemical, small-molecule microarray, 635 nm fluorescence, GSK3A (AID 1103); also: the record names both GSK3A and GSK3B
# conditions: small-molecule microarray binding, fluorescence 635 nm; higher = more signal
Listing of recorded composite z-score by entry.

compound.string	composite z-score
COC(=O)[C@@]1(Cc2ccc(F)cc2)[C@H]2c3cc(C(=O)N(C)C)n(Cc4c(CO)[nH]cc(C)c4=O)c3C[C@H]2CN1C(=O)c1ccccc1	-0.271
Cc1cccc([C@H]2C[C@H]3C(Br)=C[C@@H]2C(=O)[C@]32CO2)c1	-0.869
COC(=O)[C@@]1(Cc2ccc(OC)cc2)[C@H]2c3cc(C(=O)N4CCCC4)n(Cc4ccc(S(C)(=O)=O)cc4)c3C[C@H]2CN1C(=O)c1ccccc1	0.401
C=C(/C(=C/C[C@@H](OC(=O)c1ccncc1)c1cccc(OCCO)c1)c1cnc2ccccc2c1)C(C)C	1.18
